Tested on: KRAS-mutant PDC complex spheroid viability
Test: Anticancer human tumor 186277-243-T-J2-PDC patient-derived colon adenocarcinoma cell line growth inhibition [KRAS2]; active = viability on the fitted dose curve at most 10% of control; inactive = the rest
Conditions: second compound 0.316 µM; first compound 0.01 µM
Labels: active, inactive

molecule: CC1COCCN1c1cc(-c2ccnn2C)c2ccnc(-c3ccn[nH]3)c2n1 (stereo not drawn) + CNCc1ccccc1-c1csc(C(C)Nc2nc(C)nc3cc(OC)c(OC)cc23)c1
study.system: KRAS-mutant PDC complex spheroid viability
cat: inactive

molecule: CC(=O)Nc1cccc(-n2c(=O)n(C3CC3)c(=O)c3c(Nc4ccc(I)cc4F)n(C)c(=O)c(C)c32)c1 + CNCc1ccccc1-c1csc(C(C)Nc2nc(C)nc3cc(OC)c(OC)cc23)c1
study.system: KRAS-mutant PDC complex spheroid viability
cat: active

molecule: CC(=O)Nc1cccc(-n2c(=O)n(C3CC3)c(=O)c3c(Nc4ccc(I)cc4F)n(C)c(=O)c(C)c32)c1 + COc1cc2nc(C)nc(NC(C)c3cc(N)cc(C(F)(F)F)c3)c2cc1OC1CCOC1
study.system: KRAS-mutant PDC complex spheroid viability
cat: active

====

IC50 values by entry
Tested on: KRAS-mutant PDC complex spheroid viability
Experiment: Anticancer human tumor 186277-243-T-J2-PDC cell line growth inhibition [KRAS2]
Conditions: curve of first compound; second compound 10 µM
endpoint.label: IC50 (nM)

compound: CC1COCCN1c1cc(-c2ccnn2C)c2ccnc(-c3ccn[nH]3)c2n1 (stereo not drawn) + COc1cc2nc(C)nc(NC(C)c3cc(N)cc(C(F)(F)F)c3)c2cc1OC1CCOC1
value.measured: 18.9
//
compound: CN(C)C/C=C/C(=O)Nc1cc2c(Nc3ccc(F)c(Cl)c3)ncnc2cc1O[C@H]1CCOC1 + C=CC(=O)N1CCN(c2nc(=O)n(-c3c(C)ccnc3C(C)C)c3nc(-c4c(O)cccc4F)c(F)cc23)C(C)C1
value.measured: 49.8
//
compound: Cn1nccc1Nc1nccc(-c2cc3c(s2)C(C)(C)N(CCN2CCOCC2)C3=O)n1 + COc1cc2nc(C)nc(NC(C)c3cc(N)cc(C(F)(F)F)c3)c2cc1OC1CCOC1
value.measured: 75.7

====

Test system: KRAS-mutant PDC complex spheroid viability
Assay: Anticancer human tumor 186277-243-T-J2-PDC cell line growth inhibition [KRAS2];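 as to viability, T/C: viability read after seven days of compound exposure; 100% = DMSO vehicle-treated spheroids so lower means less viable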
Details: second compound 0.316 µM; first compound 0.01 µM; stronger effect = lower value
# viability, T/C per record follows

compound: Cn1ncnc1[C@H]1c2n[nH]c(=O)c3cc(F)cc(c23)N[C@@H]1c1ccc(F)cc1 + COc1cc2nc(C)nc(NC(C)c3cc(N)cc(C(F)(F)F)c3)c2cc1OC1CCOC1
viability, T/C / %: 89.4

compound: CC(C)n1nc(-c2ccc3oc(N)nc3c2)c2c(N)ncnc21 + C=CC(=O)N1CCN(c2nc(OCC3CCCN3C)nc3c2CCN(c2cccc4cccc(C)c24)C3)CC1CC#N
viability, T/C / %: 58.2

compound: CC(=O)Nc1cccc(-n2c(=O)n(C3CC3)c(=O)c3c(Nc4ccc(I)cc4F)n(C)c(=O)c(C)c32)c1 + C=CC(=O)N1CCN(c2nc(OCC3CCCN3C)nc3c2CCN(c2cccc4cccc(C)c24)C3)CC1CC#N
viability, T/C / %: 2.18

====

Test system: KRAS-mutant PDC complex spheroid viability
Assay: Anticancer human tumor 186277-243-T-J2-PDC cell line growth inhibition [KRAS2]; active = viability on the fitted dose curve at most 10% of control; inactive = the rest
Conditions: second compound 1 µM; first compound 10 µM
Labels: yes (1) (active), no (0) (inactive)

molecule: CC1OCC2(CCN(c3cnc(Sc4ccnc(N)c4Cl)c(N)n3)CC2)C1N (stereo not drawn) + COc1cc2nc(C)nc(NC(C)c3cc(N)cc(C(F)(F)F)c3)c2cc1OC1CCOC1
cat: no (0)
//
molecule: COc1cc2nccc(Oc3ccc(NC(=O)C4(C(=O)Nc5ccc(F)cc5)CC4)cc3)c2cc1OC + CC1OCC2(CCN(c3cnc(Sc4ccnc(N)c4Cl)c(N)n3)CC2)C1N
cat: yes (1)
//
molecule: O=C(c1cc(Cc2n[nH]c(=O)c3ccccc23)ccc1F)N1CCN(C(=O)C2CC2)CC1 + C=CC(=O)N1CCN(c2nc(=O)n(-c3c(C)ccnc3C(C)C)c3nc(-c4c(O)cccc4F)c(F)cc23)C(C)C1
cat: no (0)

====

Tested on: KRAS-mutant PDC complex spheroid viability
Test: Anticancer human tumor 186277-243-T-J2-PDC cell line growth inhibition [KRAS2];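 as to viability, T/C: viability read after seven days of compound exposure; 100% = DMSO vehicle-treated spheroids so lower means less viable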
Conditions: second compound 1 µM; first compound 1 µM; stronger effect = lower value
viability, T/C values for the compounds below.

compound: CCNC(=O)CC1N=C(c2ccc(Cl)cc2)c2cc(OC)ccc2-n2c(C)nnc21 (stereo not given) + CNCc1ccccc1-c1csc(C(C)Nc2nc(C)nc3cc(OC)c(OC)cc23)c1
unit.annotation: %
viability, T/C: 106
//
compound: COC(=O)c1ccc2c(C(=Nc3ccc(N(C)C(=O)CN4CCN(C)CC4)cc3)c3ccccc3)c(O)[nH]c2c1 + C=CC(=O)N1CCN(c2nc(=O)n(-c3c(C)ccnc3C(C)C)c3nc(-c4c(O)cccc4F)c(F)cc23)C(C)C1
unit.annotation: %
viability, T/C: 73
//
compound: CC(C)NCC(C(=O)N1CCN(c2ncnc3c2C(C)CC3O)CC1)c1ccc(Cl)cc1 (stereo not given) + CNCc1ccccc1-c1csc(C(C)Nc2nc(C)nc3cc(OC)c(OC)cc23)c1
unit.annotation: %
viability, T/C: 24.1
//
compound: CC1(C)CCC(CN2CCN(c3ccc(C(=O)NS(=O)(=O)c4ccc(NCC5CCOCC5)c([N+](=O)[O-])c4)c(Oc4cnc5[nH]ccc5c4)c3)CC2)=C(c2ccc(Cl)cc2)C1 + COc1cc2nc(C)nc(NC(C)c3cc(N)cc(C(F)(F)F)c3)c2cc1OC1CCOC1
unit.annotation: %
viability, T/C: 100
//
compound: COc1cc(Nc2ncc3c(n2)-c2ccc(Cl)cc2C(c2c(F)cccc2OC)=NC3)ccc1C(=O)O + C=CC(=O)N1CCN(c2nc(=O)n(-c3c(C)ccnc3C(C)C)c3nc(-c4c(O)cccc4F)c(F)cc23)C(C)C1
unit.annotation: %
viability, T/C: 38.5
//
compound: CCNC(=O)CC1N=C(c2ccc(Cl)cc2)c2cc(OC)ccc2-n2c(C)nnc21 (stereo not given) + COc1cc2nc(C)nc(NC(C)c3cc(N)cc(C(F)(F)F)c3)c2cc1OC1CCOC1
unit.annotation: %
viability, T/C: 55
//
compound: CC1(C)CCC(CN2CCN(c3ccc(C(=O)NS(=O)(=O)c4ccc(NCC5CCOCC5)c([N+](=O)[O-])c4)c(Oc4cnc5[nH]ccc5c4)c3)CC2)=C(c2ccc(Cl)cc2)C1 + CC1OCC2(CCN(c3cnc(Sc4ccnc(N)c4Cl)c(N)n3)CC2)C1N
unit.annotation: %
viability, T/C: 116
//
compound: CC1OCC2(CCN(c3cnc(Sc4ccnc(N)c4Cl)c(N)n3)CC2)C1N (stereo not given) + COc1cc2nc(C)nc(NC(C)c3cc(N)cc(C(F)(F)F)c3)c2cc1OC1CCOC1
unit.annotation: %
viability, T/C: 104
//
compound: COC(=O)c1ccc2c(C(=Nc3ccc(N(C)C(=O)CN4CCN(C)CC4)cc3)c3ccccc3)c(O)[nH]c2c1 + C=CC(=O)N1CCN(c2nc(OCC3CCCN3C)nc3c2CCN(c2cccc4cccc(C)c24)C3)CC1CC#N
unit.annotation: %
viability, T/C: 20.9
//
compound: O=C(c1cc(Cc2n[nH]c(=O)c3ccccc23)ccc1F)N1CCN(C(=O)C2CC2)CC1 + C=CC(=O)N1CCN(c2nc(=O)n(-c3c(C)ccnc3C(C)C)c3nc(-c4c(O)cccc4F)c(F)cc23)C(C)C1
unit.annotation: %
viability, T/C: 107

====

Test system: KRAS-mutant PDC complex spheroid viability
Test: Anticancer human tumor 186277-243-T-J2-PDC cell line growth inhibition [KRAS2]
Settings: curve of first compound; second compound 3.16 µM
pIC50: −log10 of the molar value.
Below, each of the compounds is paired with its reported pIC50 value.

compound: COC(=O)c1ccc2c(C(=Nc3ccc(N(C)C(=O)CN4CCN(C)CC4)cc3)c3ccccc3)c(O)[nH]c2c1 + C=CC(=O)N1CCN(c2nc(OCC3CCCN3C)nc3c2CCN(c2cccc4cccc(C)c24)C3)CC1CC#N
pIC50: > 7.50

compound: O=C(c1cc(Cc2n[nH]c(=O)c3ccccc23)ccc1F)N1CCN(C(=O)C2CC2)CC1 + C=CC(=O)N1CCN(c2nc(=O)n(-c3c(C)ccnc3C(C)C)c3nc(-c4c(O)cccc4F)c(F)cc23)C(C)C1
pIC50: 5.24

compound: CC1(C)CCC(CN2CCN(c3ccc(C(=O)NS(=O)(=O)c4ccc(NCC5CCOCC5)c([N+](=O)[O-])c4)c(Oc4cnc5[nH]ccc5c4)c3)CC2)=C(c2ccc(Cl)cc2)C1 + C=CC(=O)N1CCN(c2nc(OCC3CCCN3C)nc3c2CCN(c2cccc4cccc(C)c24)C3)CC1CC#N
pIC50: > 7.50
